system: MS2 coat protein; assay: apparent Kd, MS2 coat protein; higher = weaker binding; RNA-MaP array; conditions: ligand present: flavin mononucleotide; designed as: ON switch for flavin mononucleotide
quantity-name: apparent Kd (nM)
Provide the reading as a plain figure in nM.

CUAUCACAUGAGGAUCACCCAUGUAUGAUAAUCAUAGGAUAUAGUGCCAGCCAUAAUUUACUAGAAGGAUGUUUCU: 10.1
UAGAUAAGAAUCAAGGAUAUGAAAAGGCACACAUGAGGAUCACCCAUGUCAAGCACAAAAUGACGUCAGAAGGUGAUAAGCAGCAA: 35
GACGGCUCUAAGGAGGAUAUGGGAAUCAGCACAUGAGGAUCACCCAUGUAAAUGCCUCGGCUGAACCAGAAGGCCUUGGUCAGGAC: 269
UCCACACAUGAGGAUCACCCAUGUUGACAUUAUUGAGGAUAUCGGAGUGAAGGUUCGGUUCGAGAAGGCAACCAGA: 14.8
UUCUUACAUGAGGAUCACCCAUGUUCUGAUAGAGCAGGAUAUGAUGGUUAGAAGUAGAAAUCAGAAGGGCUCCAUG: 19.8

Fill in: apparent Kd of AAAUAUCAGUAGAAGGGCAUUUAAUCGAGACAUGCAGGAUAUACCAAUAACAGAUAAUUCUACAUGAGGAUCACCCAUGUACAG is ___ 9.19

Entry to check: UUUAACACCGGCAAGGAUAUUCUACAAAGAACAUGAGGAUCACCCAUGUCAACAAUCUACAUCACGAAGAAGGUGCAUCGGAUUAA 9.95

---

system: MS2 coat protein; test: apparent Kd, MS2 coat protein; higher = weaker binding; RNA-MaP array; tryptophan 2.4 mM where present; details: designed as: ON switch for tryptophan; no ligand
Response key: TRUE means apparent Kd >= 30 nM; FALSE means apparent Kd < 30 nM.

Example entries begin here.
AACAUACAAUAAUAGGUGGAUAUAAGGCGGCGAGGACCGGUACGGCCGCCACUCGCGUACAUGAGGAUCACCCAUGUCUGAAACU: FALSE
UUUGACGGCGAUCUGGGUUUACCAGAUCGGCGAGGACCGGUACGGCCGCCACUCGUGUUUCUUUGACAUGAGGAUCACCCAUGUA: TRUE
UUCUUUGACGAUCUGGGUUUACCAGAUCGACGAGGACCGGUACGGCCGCCACUCGUGUUUUCUUUACAUGAGGAUCACCCAUGUU: FALSE
AUGCAGAGCACGGCCGCCACUCCAUGUAUACAUGAGGAUCACCCAUGUAAUUUGUAUUUUUUAUAGAGGACCGGGUGAAAUGCAA: TRUE
ACAUGAGGAUCACCCAUGUGUGUAAAUCCUCGAGGACCGGUACGGCCGCCACUCGAACGAGUGUAAGUUGAAUGUAACAUUCAAC: TRUE
GAUUAAACAUGAGGAUCACCCAUGUAUAUACGAGGACCGGUACGGCCGCCACUCGUAAACGAGUAUCCUCGAAUAAACAUGAUAA: TRUE

Can UAAACUACACAUGAGGAUCACCCAUGUGGCCGAGGACCGGUACGGCCGCCACUCGUGUGUUAAUAAAAGAACUGCAAGAUUCUUU be said to have apparent Kd at or above 30 nM? TRUE

---

system: MS2 coat protein; test: apparent Kd, MS2 coat protein; higher = weaker binding; RNA-MaP array; FMN 200 µM where present; conditions: ligand present: flavin mononucleotide; designed as: ON switch for flavin mononucleotide
Parameter apparent Kd: see the listing below.
Provide the reading as a plain figure in nM.

// solved cases for apparent Kd follow
UUGCUCGUGUGAGGAUAUGCCGCCGUUUCGGCUGCAGAAGGUACUAUAAUACAUGAGGAUCACCCAUGUCUCUGUUGUUUCGUG: 27.1
GUAGCAUACCAAGGAUAUUCAGGGCUUGGAUAGACAUGAGGAUCACCCAUGUGGCGAAAGUCAAGGGAGAAGGUGGUAUGCUAC: 13.4
AAACACGGACAUGAGGAUCACCCAUGUGGCGAAAGCCUUGGGAGAAGGUAUUAUGCAAAGCAUUAUAAGGAUAUUCAUACCGUG: 187

Fill in: apparent Kd of UGGAUCAUGGGAGGAUAUGGGAAGAUACAUGAGGAUCACCCAUGUUUAAGAAUGCCGAGAGGCAACUAGAAGGCCCAUGAUCCU is ___ 47.9

---

tested on: MS2 coat protein; assay: apparent Kd, MS2 coat protein; higher = weaker binding; RNA-MaP array; details: ligand present: flavin mononucleotide; designed as: OFF switch for flavin mononucleotide
Parameter apparent Kd: see the listing below.
Provide the reading as a plain figure in µM.

// solved cases for apparent Kd follow
AUAUAGGUAGGAUAUACAAUGAAUGGGCACCGUAAAACCAUACAUGAGGAUCACCCAUGUAGAAGGACCGGAAG: 0.0125
ACCGGAAAAGGAUAUCGAAUUAGCAACAUGAGGAUCACCCAUGUCUGUCGCUCGUGUAUUCGAGAAGGUUUCGCCC: 0.00534

Please turn your attention to the following entry.
Fill in: apparent Kd of UACCUUAUUGUUAGGAUAUGCAGAUACAAAGGUGAGCAGAAGGAACAUGAGGAUCACCCAUGUAAAAUAAUAAA is ___ 0.048

---

tested on: MS2 coat protein; assay: apparent Kd, MS2 coat protein; higher = weaker binding; RNA-MaP array; conditions: ligand present: flavin mononucleotide; designed as: ON switch for flavin mononucleotide
Category | rule: reported apparent Kd within range, see lower level (below 10 nM), middle level (10 nM to below 30 nM), upper level (30 nM or more)

Example entries begin here.
GCAUGACAUGAGGAUCACCCAUGUGAAUUGUAGGAAGGAUAUAAUACUUGAUCCGCUGUCUUAGAAGGUCCAUAAU: middle level
CGCAGACAUGAGGAUCACCCAUGUACCAUGAACAGGAAUACAAGAAGGGCAAACUUUAGAUUGAUGCAGGAUAUUGUCACGAGA: middle level
CCGCCACUACAUGAGGAUCACCCAUGUGAACCGUAGAACAUGAGAAGGUGCCUAAAGCUCGAGGGCAAGGAUAUCAACCGCCGC: upper level

Into which category would you place UUGUGGGCGCUUCAGGAUAUCGCAAAAGAAACAUGAGGAUCACCCAUGUGGCCGAAGCAACUGGGCGAGAAGGGAAAGGCCCGAAG ? middle level

Entry to check: CGUUCCAGGGAGAAGGGCUACAAGAUCUUUCCAGCAGGAUAUCCCAACAUGAGGAUCACCCAUGUAGUCGUGUUAUUGGCUAUA upper level

---

test system: MS2 coat protein; assay: apparent Kd, MS2 coat protein; higher = weaker binding; RNA-MaP array; conditions: designed as: OFF switch for flavin mononucleotide; no ligand
Parameter apparent Kd: see the listing below.
Provide the reading as a plain figure in nM.

AUAUAGGUAGGAUAUACAAUGAAUGGGCACCGUAAAACCAUACAUGAGGAUCACCCAUGUAGAAGGACCGGAAG: 7.86
UGACCAUGCGAGAAGGCGUACAUGAGGAUCACCCAUGUUCGUAGAACAAUCGGGUAAGCAUGGCACGAGGAUAUCGCCAAUGCC: 23.1
UGACCGUUAAUAGGAUAUGUUCUCUUCCACAUGAGGAUCACCCAUGUAAACUAUUGUGAAACUGGACAGAAGGAUUAAACAUUG: 17.1
AAAUGGACGGCAGGAUAUGGACAAGGAAUAUUACCAGAAGGGCCCUAAUGCUCAUACAUGAGGAUCACCCAUGUUGUAAUCAAU: 17.8
CUCCCUCAGUCAGGAUAUGUGUCUUCCCAACAGGACAUGAGGAUCACCCAUGUCGCAAGCAUGGGACAGAAGGGACAUGGAGCC: 23.8
AUAUUUUCAGGAUAUCAACUUCACUACAUGAGGAUCACCCAUGUCCUCUAUUGUUUACUGUGAGAAGGGAAAGAGA: 1010

Please turn your attention to the following entry.
Fill in: apparent Kd of UUCUACAUGAGGAUCACCCAUGUCCCUGGGACCCUUGCAUCCAGAAGGCACGACUAGAUGGUGUGUGAGGAUAUGGAGGCGCUU is ___ 162

---

system: MS2 coat protein; assay: apparent Kd, MS2 coat protein; higher = weaker binding; RNA-MaP array; FMN 200 µM where present; settings: ligand present: flavin mononucleotide; designed as: ON switch for flavin mononucleotide
Parameter apparent Kd: see the listing below.
Provide the reading as a plain figure in nM.

// solved cases for apparent Kd follow
GGUUAAUAUCGAGGAUAUGUCUAGACACAUGAGGAUCACCCAUGUAUGUGUAUAGAAGGCGAUAUUAACAGCAUGUUACAUGCG: 16.4
UGCACAUGAGGAUCACCCAUGUAUUGUUCGGUUAAUAGAAGUGAGGAUAUGCUUAAAAUAAGGUAGCAGAAGGCACUGGGUUCA: 29.6
GUGCACACUCGAGGAUAUCGGAGAGUACUCCUUCGAGAAGGCGAUUCGUGCCGUGUUAUUCUGGACAUGAGGAUCACCCAUGUG: 39.9
UCAACCAGCGCCAGUUGAACAUGAGGAUCACCCAUGUACUCCAGAAGGCCGCCCAAGAACGGAGUGGAGGAUAUGGAGGUUCUC: 18.4
UCCUACAUGGGAGGAUAUGGGAUGAUAACAUGAGGAUCACCCAUGUUAAAGAUGCCGAGAGGCAACUAGAAGGCCCAUGUAGGU: 70.3
GUCUUAUUACAGAAGGUGUUUUACAUGAGGAUCACCCAUGUUUUAUUGUUUAAAUUUGAUAUUUACAAGGAUAUGUACUAAUCU: 21
ACCGACACUUACAUGAGGAUCACCCAUGUGUGUAAUCGGACACAGGAUAUCCAUGGUAAGUAUCGGGAGAAGGGUGGAAAGAAA: 233
UUCAAGUUGCGAGGAUAUCGUGUUAACAUGAGGAUCACCCAUGUAAAGGUUUAUUAAUUAAUCUUCGAGAAGGCGCUUAAUGUA: 19.5

Fill in: apparent Kd of AGAUGGUAUAUAGGAUAUCAUGUGCAAACAUGAGGAUCACCCAUGUAGAAACGUCAGUUUAAUAAUGAGAAGGAUAUACCAUCU is ___ 11.5

Entry to check: GAAUUCGCAUGAGGAUAUGCACUCAUUUCAUGUGCAGAAGGUAUAUCAUUAGACAUGAGGAUCACCCAUGUAUUGGUCAAUAAC 14.8

Entry to check: CGCUACGUUUCGUAGCAGUGUCAUCGAGAAGGCCCUGACAUGAGGAUCACCCAUGUUCCUGAAAAGGAGGAUAUCGAUGAUACA 7.04

Entry to check: GUAGCAUACCGAGGAUAUUCUGGGCUUAAAUAAACAUGAGGAUCACCCAUGUGGCGAAAGCCUAGGGAGAAGGCGGAAUGCUAC 13

Entry to check: GGGUACAUCGGAGGAUAUCAUGUAUAUACAUGAGGAUCACCCAUGUCGUACGAGAGUACGGAGAUUGAGAAGGCCGAUGUACCG 14.4

Entry to check: UGGAACAUGGGAGGAUAUGGGAUGAUAACAUGAGGAUCACCCAUGUUAAAGAUGCCGAGAGGCAACUAGAAGGCCCAUGUUCCU 60.5
